Test: ST_JUDE: Cytotoxicity using luciferase to measure ATP as an indicator of the viability of human Burkitt''s lymphoma lymphoblast cells (Raji)
Type: toxicity, cell-based
Can you tell me EC50 for the items I'm about to list?
Answers are plain numbers, in µM.

Reference set, count: 3
smiles representation	EC50 [µM]
CC[n+]1ccccc1C=Cc1ccc(N(C)C)cc1	3.86
Cc1ccc2c(c1)N(C)/C(=C/c1sc3ccccc3[n+]1CCO)S2	2.1
Cc1ccc2c(c1)N(CCO)/C(=C/c1sc3ccccc3[n+]1C)S2	1.78

Now consider the entry below.
Record request: EC50 value, item CCOc1ccc(Nc2cc(C)c3ccc(O)cc3n2)cc1 34.4

====

Can you tell me pEC50 for the items I'm about to list?
Test system: Plasmodium falciparum
Experiment: ST_JUDE: Cytotoxicity against Plasmodium falciparum V1/S
Assay type: functional, organism-based
Answers are plain numbers, as −log10 of the molar value.

Reference set, count: 8
molecule	numeric result
CCN1CCN(Cc2c(O)ccc3c(=O)c(Oc4ccccc4C(C)C)c(C(F)(F)F)oc23)CC1	6.99
CCCCn1c(=N)n(CC(O)c2ccc(Br)cc2)c2ccccc21 (stereo not drawn)	5.95
CCOC(=O)c1cccc(NC(=O)CC2C(=O)N(c3ccc(F)cc3)C(=O)N2CCC(C)C)c1 (stereo not drawn)	5.97
OC(CNC1CCCCC1)Cn1c2ccc(Cl)cc2c2cc(Cl)ccc21 (stereo not drawn)	6.01
CC(C)(C)C(=O)N1CCN(c2ccc([N+](=O)[O-])c(NC3CC3)c2)CC1	5.94
CC(C)(C)NC(=O)c1cn(C2CCCCC2)cc(C(=O)NC2CCN(Cc3ccccc3)C2)c1=O (stereo not drawn)	5.31
CCO/C(O)=C1\C(C)=NC2=C(C(=O)CC(c3ccc(OC)c(OC)c3)C2)C1c1cccc(C)c1 (stereo not drawn)	5.93
CCN1/C(=C/c2cccc[n+]2C)Sc2ccc(OC)cc21	5.97

Hey, quick one: what's pEC50 for each of these?
1. O=[N+]([O-])c1ccc(S(=O)(=O)N2CCN(C(=S)NCc3ccco3)CC2)cc1
2. CCOC(=O)C1(Cc2ccc(Cl)cc2)CCN(Cc2ccccc2O)CC1
3. CCCO/C(O)=C1\C(C)=NC2=C(C(=O)CC(c3ccc(OC)c(OC)c3)C2)C1c1cccc(Cl)c1 (stereo not drawn)
4. CCOc1cc(C2CC(=O)NC3=C2C(=O)CC(c2cc(OC)ccc2OC)C3)ccc1O (stereo not drawn)
5. CCN(CC)CCn1c(=N)n(CC(O)c2ccc(Cl)c(Cl)c2)c2ccccc21 (stereo not drawn)
6. Oc1ccc(Br)cc1CN1CCN(Cc2ccccc2)CC1

6.57
6.49
6.29
5.78
5.96
6.24

====

Tested on: Plasmodium falciparum
Assay: ST_JUDE: Cytotoxicity against Plasmodium falciparum K1
Assay type: functional, organism-based
Label scheme, based on EC50: c1: < 300 nM; c2: ≥ 300 nM and < 700 nM; c3: ≥ 700 nM

compound	assigned class
C#CC[n+]1ccn2c(C)ccc2c1CC	c3
CC(C)NCC(O)Cn1c2ccc(Cl)cc2c2cc(Cl)ccc21 (stereo not drawn)	c2
CC(C)CN1C(=O)c2ccccc2C(C(=O)Nc2ccc(F)cc2F)C1c1cccs1 (stereo not drawn)	c3

State the band of CC(O)(c1ccc(Cl)cc1)C(CN1CCCCC1)c1ccccc1 (stereo not drawn) c2

How about CC(C)CN1C(=O)c2ccccc2C(C(=O)Nc2cccc(C#N)c2)C1c1cccs1 (stereo not drawn) ? c1

How about CC(C)(C)c1cc(/N=N/C(=O)c2ccncc2)cc(C(C)(C)C)c1O ? c2

How about CCCO/C(O)=C1\C(C)=NC2=C(C(=O)CC(c3ccc(OC)c(OC)c3)C2)C1c1cccc(C)c1 (stereo not drawn) ? c2

How about CCCCCCn1c(=N)n(CC(O)COc2ccccc2C)c2ccccc21 (stereo not drawn) ? c3

How about CC(C)c1ccc(CNCC(O)c2ccccc2)cc1 (stereo not drawn) ? c3

How about OC(CNC1CCCC1)Cn1c2ccc(Cl)cc2c2cc(Cl)ccc21 (stereo not drawn) ? c1

How about Cn1c(=O)c2c(-c3ccc(C(C)(C)C)cc3)n(-c3cc(Cl)ccc3O)cc2n(C)c1=O ? c3

How about Fc1ccc(Nc2nc(NCc3ccccc3)c3ccccc3n2)cc1 ? c3

How about CCCCOc1ccc(N(C(C)=O)C2=C(N3CCOCC3)C(=O)c3ccccc3C2=O)cc1 ? c1

How about Cc1oc2c(c1C(=O)NCCC(C)C)C(=O)c1ccccc1C2=O ? c3

How about CCCO/C(O)=C1\C(C)=NC2=C(C(=O)CC(c3ccc(OC)c(OC)c3)C2)C1c1ccccc1OC (stereo not drawn) ? c2

How about COc1ccc(Nc2cc(C)nc(Nc3ccc(NS(=O)(=O)c4ccc(OC)cc4)cc3)n2)cc1 ? c3

How about CCCCCOc1ccc(N(C(C)=O)C2=C(N3CCCCC3)C(=O)c3ccccc3C2=O)cc1 ? c1

How about C=CC[n+]1c(C=C2C=CN(CC)C=C2)sc2ccccc21 ? c3

How about CC(C)c1ccc(S(=O)(=O)NC2=C/C(=N\c3ccc(O)cc3)C(=O)c3ccccc32)cc1 ? c2

How about OC(CNC1CCCC1)Cn1c2ccccc2c2ccccc21 (stereo not drawn) ? c2

How about Cc1ccc(C)c(N2CCN(Cc3cc(Cl)ccc3O)CC2)c1 ? c1

====

Tested on: Plasmodium falciparum
Test: ST_JUDE: Plasmodium falciparum K1 EC50 (uM) as measured by SYBR green dye
Format: functional, organism-based
Can you tell me EC50 for the items I'm about to list?
Answers are plain numbers, in µM.

compound	value unit	numeric result
Cc1cc(C)c2nc(NNC(=O)c3ccc(S(=O)(=O)N(C)C)cc3)sc2c1	µM	4.88
CCOC(=O)C(NC(C)=O)(Nc1ccc(S(=O)(=O)Nc2cc(C)on2)cc1)C(F)(F)F (stereo unspecified)	µM	4.56
c1ccc(CCNc2ccnc3cc4ccccc4cc23)cc1	µM	0.191

Hey, quick one: what's EC50 for each of these?
1. CCOc1ccc2nc(C)cc(Nc3ccc(N4CCOCC4)cc3)c2c1
2. C#CCOc1ccc(C2C(C#N)=C(N)Oc3c2ccc2ccccc32)cc1OC (stereo unspecified)
3. CCOC(=O)C1=C(C)N=c2s/c(=C\c3cc(Cl)ccc3O)c(=O)n2C1c1ccc(N(C)C)cc1 (stereo unspecified)
4. CCOc1cc(C2CC(=O)NC3=C2C(=O)CC(c2ccc(OC)cc2)C3)cc(Br)c1O (stereo unspecified)
5. Cc1cc(C)cc(Nc2nc(NCC3CCCO3)c3ccccc3n2)c1 (stereo unspecified)
6. CCOC(=O)C1=C(c2ccccc2)N=c2s/c(=C\c3cccc(O)c3)c(=O)n2C1c1cccc(OC)c1OC (stereo unspecified)
7. Cc1cccc(NC(c2ccc(F)cc2)c2ccc3cccnc3c2O)n1 (stereo unspecified)

[6.36, 4.08, 1, 1.53, 1.79, 2.18, 4.17]

Hey, quick one: what's EC50 for each of these?
1. COc1ccc(NC2=C(N3CCOCC3)C(=O)c3ccccc3C2=O)cc1
2. CCCCCC(O)(c1ccc(F)cc1)C(CN1CCOCC1)c1ccc(Cl)cc1 (stereo unspecified)
3. CC[N+](CC)(CC)CCCOC1CC(C)CCC1C(C)C (stereo unspecified)
4. COCCN1C(=O)c2ccccc2C(C(=O)Nc2ccc(F)c(Cl)c2)C1c1cccs1 (stereo unspecified)

0.286
0.935
4.65
2.6

====

Test: ST_JUDE: Cytotoxicity using luciferase to measure ATP as an indicator of the viability of human Burkitt''s lymphoma lymphoblast cells (Raji)
Assay type: toxicity, cell-based
pEC50: −log10 of the molar value.
Can you tell me pEC50 for the items I'm about to list?

Reference set, count: 5
compound	pEC50
CCc1ccccc1NC(=O)C1c2ccccc2C(=O)N(CC(C)C)C1c1cccs1 (stereo unspecified)	< 4.37
Cc1ccc(C2(c3ccc(C)cc3)CC2C(=O)Nc2ccc([N+](=O)[O-])cc2O)cc1 (stereo unspecified)	4.98
Cc1cccc(N2CCN(Cc3cc(Br)ccc3O)CC2)c1C	< 4.55
CCCCn1c(=N)n(CC(O)c2ccc(Br)cc2)c2ccccc21 (stereo unspecified)	4.48
COc1ccc(NC(=O)C2c3ccccc3C(=O)N(CC(C)C)C2c2cccs2)cc1Cl (stereo unspecified)	< 4.39

Now consider the entry below.
Record request: pEC50 value, item CCCO/C(O)=C1\C(C)=NC2=C(C(=O)CC(c3ccc(OC)c(OC)c3)C2)C1c1cccc(Cl)c1 (stereo unspecified) < 4.42

====

Can you tell me pEC50 for the items I'm about to list?
Test system: Toxoplasma gondii
Assay: ST_JUDE: Growth inhibition of to Toxoplasma gondii, in human U-2OS cells, as measured by luciferase.
Assay type: functional, organism-based
Details: RH, U2OS
pEC50: −log10 of the molar value.

compound	result
COCCO/C(O)=C1\C(C)=NC2=C(C(=O)CC(c3ccc(OC)c(OC)c3)C2)C1c1ccc(F)cc1 (stereo not given)	< 4.63

Hey, quick one: what's pEC50 for each of these?
1. CC(=O)N(C1=C(N(C)C)C(=O)c2ccccc2C1=O)c1ccc(F)cc1
2. COc1ccc(C2CC(=O)C3=C(C2)NC(=O)CC3c2ccc(OC)c(OC)c2)cc1 (stereo not given)
3. COc1ccc(NC(=O)C2c3ccccc3C(=O)N(C3CCCC3)C2c2cccs2)cc1 (stereo not given)
4. Cc1ccc2c(c1)N(C)/C(=C/c1sc3ccccc3[n+]1CCO)S2

6.20
< 4.60
< 4.65
< 4.97
